Each recorded value in this set is attributed to paper PMC12794062.

experiment: Solubility, miniaturised shake flask method, HPLC-DAD; assay type: physicochemical; conditions: aqueous solution, 25 °C, aqueous buffer, thermodynamic from solid; pH 6.5; footnote: thermodynamic solubility, title and text: kinetic
metric.name: solubility thermodynamic at 20 h

What value of solubility thermodynamic at 20 h has been reported for the following molecule? Cc1cnc(N)c(/C=C/c2cncc(C(=O)Nc3ccc(Cl)cc3)c2)c1 [Compound 23] < 5 µM

###

Assign pIC50 to each entry below.
tested on: P. falciparum K1; experiment: In vitro asexual blood stage antiplasmodium activity (pLDH assay), multidrug-resistant K1 strain; details: read-out: Pf IC50 ± SD K1; asexual blood stage; mean ± SD, n ≥ 2 independent experiments
Lab note: report pIC50 as minus log10 of the concentration in molar units, number only.

Checklist item: pIC50 tested on P. falciparum K1, entry Cc1cnc(N)c(/C=C/c2cncc(C(=O)NCCc3ccccc3)c2)c1 , value? 6.24

Checklist item: pIC50 tested on P. falciparum K1, entry Cc1cnc(N)c(/C=C/c2cncc(C(=O)NCCc3ccc(Cl)cc3)c2)c1 , value? 6.14

###

Assign log10(IC50) to each entry below.
tested on: P. falciparum NF54; assay: In vitro asexual blood stage antiplasmodium activity (pLDH assay), drug sensitive NF54 strain; details: Plasmodium falciparum, NF54, read-out: Pf IC50 ± SD NF54, asexual blood stage; mean ± SD, n ≥ 2 independent experiments
A difference of one corresponds to tenfold IC50; all values are log10 with IC50 in nM.

What value of log10(IC50) has been reported for the following molecule? Cc1cnc(N)c(/C=C/c2cncc(C(=O)NCCc3ccc(Cl)cc3Cl)c2)c1 [Compound 4] 2.34

What value of log10(IC50) has been reported for the following molecule? Cc1cnc(N)c(/C=C/c2cncc(C(=O)Nc3ccc(Cl)cc3Cl)c2)c1 [Compound 22] 2.30

What value of log10(IC50) has been reported for the following molecule? Cc1cnc(N)c(/C=C/c2cncc(C(=O)Nc3ccc(Cl)cc3)c2)c1 [Compound 23] 2.15

What value of log10(IC50) has been reported for the following molecule? Nc1ncccc1/C=C/c1cncc(C(=O)NCCc2ccc(Cl)cc2Cl)c1 [Compound 7] 2.53

What value of log10(IC50) has been reported for the following molecule? Cc1cnc(N)c(/C=C/c2cccc(C(=O)NCCc3ccc(Cl)cc3Cl)n2)c1 [Compound 26] 2.89

What value of log10(IC50) has been reported for the following molecule? Nc1ccncc1/C=C/c1cncc(C(=O)NCCc2ccc(Cl)cc2Cl)c1 [Compound 12] 2.15

What value of log10(IC50) has been reported for the following molecule? Cc1ccc(N)c(/C=C/c2cncc(C(=O)NCCc3ccc(Cl)cc3Cl)c2)c1 [Compound 5] 3.41

What value of log10(IC50) has been reported for the following molecule? Cc1cnc(N)c(/C=C/c2cncc(C(=O)NCCc3ccncc3)c2)c1 [Compound 24] 3.31

What value of log10(IC50) has been reported for the following molecule? Cc1cnc(N)c(/C=C/c2cscc2C(=O)NCCc2ccc(Cl)cc2Cl)c1 [Compound 28] 2.77

What value of log10(IC50) has been reported for the following molecule? O=C(NCCc1ccc(Cl)cc1Cl)c1cncc(/C=C/c2cccnc2)c1 [Compound 10] 3.42

What value of log10(IC50) has been reported for the following molecule? Nc1ncncc1/C=C/c1cncc(C(=O)NCCc2ccc(Cl)cc2Cl)c1 [Compound 13] 2.68

What value of log10(IC50) has been reported for the following molecule? Cc1cnc(N)c(/C=C/c2cccc(C(=O)NCCc3ccc(Cl)cc3Cl)c2)c1 [Compound 27] 2.79

What value of log10(IC50) has been reported for the following molecule? Cc1cnc(N)c(/C=C/c2cncc(C(=O)NCc3ccc(Cl)cc3Cl)c2)c1 [Compound 20] 2.20

What value of log10(IC50) has been reported for the following molecule? Cc1cnc(N)c(/C=C/c2cncc(C(=O)NCCc3ccccc3)c2)c1 [Compound 19] 2.51

What value of log10(IC50) has been reported for the following molecule? Cc1cnc(N)c(/C=C/c2cncc(C(=O)NCc3cc(Cl)cc(Cl)c3)c2)c1 [Compound 21] 1.95

What value of log10(IC50) has been reported for the following molecule? Nc1ccc(/C=C/c2cncc(C(=O)NCCc3ccc(Cl)cc3Cl)c2)cn1 [Compound 8] 2.71

What value of log10(IC50) has been reported for the following molecule? Nc1cncc(/C=C/c2cncc(C(=O)NCCc3ccc(Cl)cc3Cl)c2)c1 [Compound 9] 2.68

What value of log10(IC50) has been reported for the following molecule? Cc1cncc(/C=C/c2cncc(C(=O)NCCc3ccc(Cl)cc3Cl)c2)c1 [Compound 6] 3.07

What value of log10(IC50) has been reported for the following molecule? O=C(NCCc1ccc(Cl)cc1Cl)c1cncc(/C=C/c2ccccc2)c1 [Compound 11] 3.63
